- System: Escherichia coli TOP10
- test details: shrunken log2 fold change of peptide-encoding DNA abundance (4.5 h post-induction vs induction); higher = less antimicrobial activity (less host growth inhibition)
- measurement parameters: time post-induction: 4.5 h; library: site-saturation at positions 5, 18, 19, 20

record sequence | shrunken log2 fold change
RRIRIRPPRLPRPRPRPWHDPRP | -0.676
RRIRARPPRLPRPRPRPDTAPRP | 0.147
RRIRHRPPRLPRPRPRPSIKPRP | -0.501
RRIRPRPPRLPRPRPRPKTCPRP | -0.124
RRIRPRPPRLPRPRPRPKVCPRP | 0.0118
RRIRARPPRLPRPRPRPWFVPRP | -0.0746
RRIRGRPPRLPRPRPRPTIDPRP | 0.214
RRIRLRPPRLPRPRPRPGVHPRP | -0.308
RRIRHRPPRLPRPRPRPSPGPRP | -0.051
RRIRYRPPRLPRPRPRPHPWPRP | -0.542
RRIRFRPPRLPRPRPRPDEMPRP | -0.0134
RRIRFRPPRLPRPRPRPPDYPRP | -0.026
RRIRNRPPRLPRPRPRPHYHPRP | -0.142
RRIRCRPPRLPRPRPRPVMGPRP | 0.111
RRIRWRPPRLPRPRPRPQYKPRP | -0.696
RRIRCRPPRLPRPRPRPNMHPRP | -0.615
RRIRYRPPRLPRPRPRPPMWPRP | 0.53
RRIRCRPPRLPRPRPRPKYIPRP | -0.828
RRIRHRPPRLPRPRPRPGEVPRP | 0.0396
RRIRIRPPRLPRPRPRPWTPPRP | -0.179
RRIRTRPPRLPRPRPRPPSQPRP | 0.269
RRIRRRPPRLPRPRPRPVMFPRP | 0.155
RRIRQRPPRLPRPRPRPWHTPRP | -0.169
RRIRDRPPRLPRPRPRPDLHPRP | -0.0715
RRIRFRPPRLPRPRPRPDDRPRP | 0.00835
RRIRERPPRLPRPRPRPQQTPRP | -0.0895
RRIRTRPPRLPRPRPRPFRYPRP | -0.0915
RRIRLRPPRLPRPRPRPPTNPRP | 0.177
RRIRQRPPRLPRPRPRPDRDPRP | -0.242
RRIRGRPPRLPRPRPRPPPYPRP | 0.611
RRIRWRPPRLPRPRPRPSFLPRP | -0.351
RRIRTRPPRLPRPRPRPVACPRP | -0.0699

###

# shrunken log2 fold change values compiled below
- System: Escherichia coli TOP10;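 further: peptides expressed intracellularly from a pBAD plasmid library in pooled LB shake-flask culture, induced with 0.3% L-arabinose, DNA abundance read by NGS, three biological replicates, DESeq2 with apeglm shrinkage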
- test details: shrunken log2 fold change of peptide-encoding DNA abundance (4.5 h post-induction vs induction); higher = less antimicrobial activity (less host growth inhibition)
- measurement parameters: time post-induction: 4.5 h; library: site-saturation at positions 5, 18, 19, 20

record sequence | shrunken log2 fold change
RRIRGRPPRLPRPRPRPKLYPRP | 0.354
RRIRERPPRLPRPRPRPPENPRP | 0.222
RRIRIRPPRLPRPRPRPEIQPRP | -0.171
RRIRNRPPRLPRPRPRPTTGPRP | 0.0259
RRIRNRPPRLPRPRPRPKNTPRP | -0.462
RRIRFRPPRLPRPRPRPTSAPRP | 0.344
RRIRQRPPRLPRPRPRPHKMPRP | 0.246
RRIRPRPPRLPRPRPRPAVSPRP | 0.171
RRIRTRPPRLPRPRPRPWTHPRP | -0.0143
RRIRCRPPRLPRPRPRPDYWPRP | -0.437
RRIRPRPPRLPRPRPRPSQDPRP | -0.334
RRIRGRPPRLPRPRPRPRPDPRP | 0.94
RRIRGRPPRLPRPRPRPTTIPRP | 0.623
RRIRTRPPRLPRPRPRPPPDPRP | 0.58
RRIRRRPPRLPRPRPRPVPQPRP | 0.28
